# experimental.system: Indoleamine 2,3-dioxygenase 1 (Homo sapiens, UniProt P14902)
# Sequence (P14902 whole entry): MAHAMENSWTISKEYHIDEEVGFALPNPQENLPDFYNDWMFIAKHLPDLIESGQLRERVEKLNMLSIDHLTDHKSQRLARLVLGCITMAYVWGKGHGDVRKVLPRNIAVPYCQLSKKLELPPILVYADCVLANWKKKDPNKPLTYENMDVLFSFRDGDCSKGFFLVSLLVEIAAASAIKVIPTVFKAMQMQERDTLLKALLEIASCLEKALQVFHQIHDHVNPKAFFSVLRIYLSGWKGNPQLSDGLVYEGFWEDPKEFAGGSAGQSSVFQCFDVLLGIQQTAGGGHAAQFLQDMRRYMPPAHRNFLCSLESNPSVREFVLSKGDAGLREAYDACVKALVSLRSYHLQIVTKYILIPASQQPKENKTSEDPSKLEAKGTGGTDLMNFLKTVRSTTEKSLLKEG
parameter: pIC50
Numbers only, as −log10 of the molar value.

Task: Data request, read-out pIC50, for "C[C@@]12CCCCC1=C(O)C(=O)c1cc3c(cc12)C(=O)C1=C(C3=O)S(=O)(=O)CCN1"
Output: 6.96

---

# System: MIA PaCa-2
# protocol.text: Antiproliferative activity against human MIA PaCa-2 cells
parameter: pIC50
Answers are plain numbers, as −log10 of the molar value.

Task: Data request, read-out pIC50, for CCN(CC)CCCC(C)Nc1ccnc2cc(Cl)ccc12 (stereo unspecified)
Output: 5.46

---

# experimental.system: C-X-C chemokine receptor type 4 (Homo sapiens, UniProt P61073)
# Sequence (P61073 whole entry): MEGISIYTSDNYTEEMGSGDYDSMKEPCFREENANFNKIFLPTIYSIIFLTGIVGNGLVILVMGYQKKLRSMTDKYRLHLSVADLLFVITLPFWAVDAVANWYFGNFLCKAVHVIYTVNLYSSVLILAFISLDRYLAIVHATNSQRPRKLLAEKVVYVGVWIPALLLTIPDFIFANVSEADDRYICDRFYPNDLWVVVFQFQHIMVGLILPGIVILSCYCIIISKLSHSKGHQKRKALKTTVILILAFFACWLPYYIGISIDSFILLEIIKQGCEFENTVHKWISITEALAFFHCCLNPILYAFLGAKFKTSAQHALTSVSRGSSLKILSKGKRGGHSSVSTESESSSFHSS
# protocol.text: Antagonist activity at CXCR4 receptor in human MIA PaCa-2 cells assessed as reduction in forskolin-stimulated inhibition of cAMP production
parameter: EC50 (µM)
Numbers only, in µM.

Task: Data request, read-out EC50, for CCN(CC)CCCC(C)Nc1ccnc2cc(Cl)ccc12 (stereo unspecified)
Output: 6.5

---

Sequence of the target: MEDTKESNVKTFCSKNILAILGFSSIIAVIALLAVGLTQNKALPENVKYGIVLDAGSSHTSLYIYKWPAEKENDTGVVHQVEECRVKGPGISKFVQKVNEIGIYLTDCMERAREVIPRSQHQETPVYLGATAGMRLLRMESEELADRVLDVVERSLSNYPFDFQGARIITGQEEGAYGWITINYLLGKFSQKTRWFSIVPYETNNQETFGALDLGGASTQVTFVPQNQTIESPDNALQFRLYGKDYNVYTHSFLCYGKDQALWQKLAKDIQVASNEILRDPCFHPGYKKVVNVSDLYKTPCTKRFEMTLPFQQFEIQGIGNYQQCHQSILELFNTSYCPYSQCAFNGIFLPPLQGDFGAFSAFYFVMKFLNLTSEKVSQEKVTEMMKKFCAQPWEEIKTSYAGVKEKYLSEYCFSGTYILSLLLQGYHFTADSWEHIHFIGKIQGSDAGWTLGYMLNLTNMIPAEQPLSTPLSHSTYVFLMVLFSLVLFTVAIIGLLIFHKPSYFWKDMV
parameter: pIC50
Answers are plain numbers, as −log10 of the molar value.

Task: Data request, read-out pIC50, for "COc1cc(/C=N/c2nc(-c3cc4ccccc4oc3=O)cs2)cc(OC)c1OC"
Output: 7.30

---

# protocol.text: Oral bioavailability in rat
# Format: ADME, organism-based
# assay.conditions: in vivo
parameter: bioavailability (%)
Numbers only, in %.

Task: Data request, read-out bioavailability, for N=C(NO)NCC[C@H](N)C(=O)O [NOR-NOHA]
Output: 100

---

# experimental.system: Toll-like receptor 8 (Homo sapiens)
# Sequence (Q9NR97 whole entry): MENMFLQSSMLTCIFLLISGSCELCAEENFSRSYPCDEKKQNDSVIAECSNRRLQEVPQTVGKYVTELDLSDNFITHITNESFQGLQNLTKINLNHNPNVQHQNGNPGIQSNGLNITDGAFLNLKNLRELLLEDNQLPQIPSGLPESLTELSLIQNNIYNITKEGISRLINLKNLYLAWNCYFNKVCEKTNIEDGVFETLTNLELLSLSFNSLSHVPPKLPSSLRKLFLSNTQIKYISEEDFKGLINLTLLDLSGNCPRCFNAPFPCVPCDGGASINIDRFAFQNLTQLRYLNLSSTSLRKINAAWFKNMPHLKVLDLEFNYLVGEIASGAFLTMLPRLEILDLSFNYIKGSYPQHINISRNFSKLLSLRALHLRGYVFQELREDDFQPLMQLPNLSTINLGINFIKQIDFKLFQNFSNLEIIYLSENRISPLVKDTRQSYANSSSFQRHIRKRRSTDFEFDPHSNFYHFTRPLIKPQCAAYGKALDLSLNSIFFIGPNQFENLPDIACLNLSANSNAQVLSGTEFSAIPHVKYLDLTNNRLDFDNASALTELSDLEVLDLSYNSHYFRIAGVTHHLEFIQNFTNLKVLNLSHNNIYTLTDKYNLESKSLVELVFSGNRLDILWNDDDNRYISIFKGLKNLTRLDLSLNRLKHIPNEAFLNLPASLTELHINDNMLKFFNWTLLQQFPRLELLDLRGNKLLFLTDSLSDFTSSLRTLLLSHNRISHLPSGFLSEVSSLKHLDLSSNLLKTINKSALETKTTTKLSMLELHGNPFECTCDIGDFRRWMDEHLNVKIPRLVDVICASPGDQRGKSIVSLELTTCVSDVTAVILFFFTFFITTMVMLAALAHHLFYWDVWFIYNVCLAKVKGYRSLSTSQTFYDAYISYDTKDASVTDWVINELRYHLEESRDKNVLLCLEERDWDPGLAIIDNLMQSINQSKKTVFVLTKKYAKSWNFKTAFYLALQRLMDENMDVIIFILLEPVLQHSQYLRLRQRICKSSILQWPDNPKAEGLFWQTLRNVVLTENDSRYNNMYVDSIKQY
# protocol.text: Agonist activity at human TLR8 expressed in HEK293 cells by reporter gene assay
parameter: EC50 (nM)
Numbers only, in nM.

Task: Data request, read-out EC50, for "CCCN(CCC)C(=O)C1=Cc2ccc(-c3ccc(C(=O)N4CCCC4)cc3)cc2N=C(N)C1"
Output: 100
